assay: Antiviral activity against Influenza A virus (A/Viet Nam/1203/2004(H5N1)) infected in MDCK cells; type: functional, cell-based
assay metric: EC50

The cases that follow already have their EC50 on record.
1. COC(=O)[C@H](C)NC(=O)[C@]1(C)CCC[C@]2(C)[C@H]3C[C@H]4C(C(C)C)=C[C@]3(CC[C@H]21)[C@@H]1C(=O)CCC(=O)[C@@H]14 : 31 µM
2. COC(=O)[C@]1(C)CCC[C@]2(C)[C@H]3C[C@H]4C(C(C)C)=C[C@]3(CC[C@H]21)[C@@H]1C(=O)[C@H]2O[C@H]2C(=O)[C@@H]14 : 3.2 µM
3. COC(=O)[C@H]1[C@@H](C(=O)OC)C2(C(=O)OC)CC[C@@H]3[C@](C)(CCC[C@@]3(C)C(=O)OC)[C@H]2C[C@H]1C(=O)C(C)C (stereo not given in full) : 3.2 µM
4. COC(=O)[C@]12CC[C@H](O)[C@H]1[C@@]13C=C(C(C)C)[C@@H]2C[C@@H]1[C@@]1(C)CCC[C@@](C)(C(=O)OC)[C@@H]1CC3 : 3.2 µM

Next compound, EC50 to be filled in.
# EC50 (compound: COC(=O)[C@]12C=CC(=O)[C@H]1[C@@]13C=C(C(C)C)[C@@H]2C[C@@H]1[C@@]1(C)CCC[C@@](C)(C(=O)OC)[C@@H]1CC3 ) is > 13 µM

====

assay: Cytotoxicity against Influenza B virus (B/Florida/4/2006) infected MDCK cells; type: cell-based, Canis lupus familiaris; conditions: dog
Listed below: CC50 values for each entry.
Number in µM, nothing else.

Some compounds with recorded CC50:
1. COC(=O)[C@]1(C)CCC[C@]2(C)[C@H]3C[C@H]4C(C(C)C)=C[C@]3(CC[C@H]21)[C@H]1[C@@H]4[C@@H](OC(=O)/C=C/c2ccccc2)CC[C@@H]1OC(=O)C=Cc1ccccc1 : 9.3
2. COC(=O)[C@]1(C)CCC[C@]2(C)[C@H]3C[C@H]4C(C(C)C)=C[C@]3(CC[C@H]21)[C@@H]1C(=O)CC[C@H](OCCC#N)[C@@H]14 : 52
3. COC(=O)[C@]1(C)CCC[C@]2(C)[C@H]3C[C@H]4C(C(C)C)=C[C@]3(CC[C@H]21)[C@@H]1/C(=N/O)CCC2(OCCO2)[C@@H]14 : 3.2
4. COC(=O)[C@]1(C)CCC[C@]2(C)[C@H]3C[C@H]4C(C(C)C)=C[C@]3(CC[C@H]21)[C@@H]1C(=O)OC(=O)[C@@H]14 : 8.7

The compound listed as COC(=O)[C@]12C=CC(=O)[C@H]1[C@@]13C=C(C(C)C)[C@@H]2C[C@@H]1[C@@]1(C)CCC[C@@](C)(C(=O)OC)[C@@H]1CC3 shows CC50 equal to 25

====

In this section, each of the compounds is paired with its reported pEC50.
assay: Antiviral activity against Influenza A virus (A/Brisbane/10/2007(H3N2)) infected in MDCK cells; format: functional, cell-based
In textbook form, pEC50 equals minus log to base ten of the concentration in mol/L.

1) COC(=O)[C@]1(C)CCC[C@]2(C)[C@H]3C[C@H]4C(C(C)C)=C[C@]3(CC[C@H]21)[C@@H]1C(=O)C=CC(=O)[C@@H]14 : 5.49

Sure, the documented pEC50 for COC(=O)[C@]1(C)CCC[C@]2(C)[C@H]3C[C@H]4C(C(C)C)=C[C@]3(CC[C@H]21)[C@@H]1/C(=N/O)CCC2(OCCO2)[C@@H]14 is 5.49

Short answer for COC(=O)[C@H]1[C@@H](C(=O)OC)C2(C(=O)OC)CC[C@@H]3[C@](C)(CCC[C@@]3(C)C(=O)OC)[C@H]2C[C@H]1C(=O)C(C)C (some centres not stated) : pEC50 was 4.49

Looking up COC(=O)[C@H](C)NC(=O)[C@]1(C)CCC[C@]2(C)[C@H]3C[C@H]4C(C(C)C)=C[C@]3(CC[C@H]21)[C@@H]1C(=O)OC(=O)[C@@H]14 , I see its pEC50 listed as 4.49

// field: pEC50; key: COC(=O)[C@]12C=CC(=O)[C@H]1[C@@]13C=C(C(C)C)[C@@H]2C[C@@H]1[C@@]1(C)CCC[C@@](C)(C(=O)OC)[C@@H]1CC3 ; value = 5.49

pEC50 for COC(=O)[C@]1(C)CCC[C@]2(C)[C@H]3C[C@H]4C(C(C)C)=C[C@]3(CC[C@H]21)[C@@H]1C(=O)CC[C@H](OC(=O)c2cccnc2)[C@@H]14 is 4.49
